# GI50 annotations
Tested on: SW-620 colon
Assay: NCI tumour cell line growth inhibition, 48 h

// below: answered compounds
givenSmiles	measuredMetric	valueObserved
Cc1ccc(Nc2nc(NCCO)c3ccccc3n2)cc1C	GI50	4030 nM
O=[N+]([O-])c1cnc(Sc2ccncn2)c([N+](=O)[O-])c1	GI50	2190 nM
CCC/C(=N\NC(=S)N1CCN(c2ccccn2)CC1)c1ccccn1	GI50	11.7 nM
COc1ccc(CN2C(=O)/C(=C\c3cc(OC)c(OC)c(OC)c3)c3cc(OC)ccc32)cc1	GI50	1820 nM
CCNC(=O)C[C@@H]1N=C(c2ccc(Cl)cc2)c2cc(OC)ccc2-n2c(C)nnc21	GI50	> 31000 nM

Now take the following compound into account.
Query :: Data request, read-out GI50, for `CC/C=C\C[C@H](O)C/C=C1/C(=O)C=C[C@@H]1C/C=C\CCCC(=O)NC(C)C`
Result :: 3160 nM

###

Consider the following compounds and their measured TGI readings.
Tested on: SR leukemia
Experiment: NCI tumour cell line growth inhibition, 48 h

// worked examples, TGI included
compound	studyTarget	TGI
COc1cc(NS(C)(=O)=O)ccc1NCc1cnc2ccc3[nH]c(C)ccc3c12	SR leukemia	33.5 µM
O=C(Nc1ccc(-c2nc3cc4ccccc4cc3[nH]2)cc1)c1cccc(Br)c1	SR leukemia	8.66 µM
OC1(c2ccccc2)CC2CCC(C1)N2CCc1ccccc1 (stereo not drawn)	SR leukemia	> 100 µM
Clc1ccc(N=C/C=C/Nc2ccc(Cl)cn2)nc1	SR leukemia	6.69 µM
c1ccc(COc2ccc(CC3SCCCS3)cc2)cc1	SR leukemia	> 100 µM

Query :: Using the record for CCOC(=O)C1C(=O)CC(O)(OCC)C(C(=O)OCC)C1c1ccc(OC)cc1 (stereo not drawn) , report its TGI.
Result :: > 100 µM

Query :: What value of measured TGI is listed for `COc1cc(/C=C(/C)[N+](=O)[O-])ccc1O` ?
Result :: 11.2 µM

Query :: So what does the record say about TGI for `O=C(O)c1ccc(S(=O)(=O)c2ccccc2)c([N+](=O)[O-])c1` ?
Result :: > 100 µM

###

System: K-562 leukemia
Experiment: NCI tumour cell line growth inhibition, 48 h; in the data active = GI50 below about 0.43 µM; inactive = the rest
Log the outcome using a class from active, inactive

givenSmiles	discreteLabel
CS(=O)(=O)c1ccc(Oc2cc(F)cc(C#N)c2)c2c1[C@H](O)[C@H](F)[C@@H]2F	inactive
O=C(Nc1ccc(S(=O)(=O)Nc2nccs2)cc1)c1cccnc1Nc1cccc(Cl)c1	inactive
CCC1=C(C)/C(=C/c2[nH]c(C)c(C(=O)CCCCC(=O)OC)c2C)N=C1c1ccc[nH]1	inactive

Query :: What is the recorded call for this molecule in the test? `O=C1/C(=C/c2cccc([N+](=O)[O-])c2)COc2ccc(O)c(O)c21`
Result :: inactive

Query :: // param item: `CN(C)CCNC(=O)c1ccc(Nc2nc3ccccc3c3occc23)cc1` ; yields the recorded call
Result :: inactive

###

Recorded TGI for the following compounds
Test system: MALME-3M melanoma
Experiment: NCI tumour cell line growth inhibition, 48 h

Examples with their reported TGI follow.
compound	studyTarget	TGI
O=C1OC(c2ccco2)=N/C1=C\c1ccc(Cl)c(Cl)c1	MALME-3M melanoma	> 100 µM
C/C(=N\N=C(N)N)C(CN(CC(C)C)CC(C)C)C(=O)Nc1ccc(C)cc1C (stereo unspecified)	MALME-3M melanoma	> 100 µM
Oc1ccc(C(c2ccccc2)(c2ccccc2)c2ccccc2)cc1	MALME-3M melanoma	68.9 µM
CC(=O)N(C)OC(=O)CC(=O)c1ccccc1	MALME-3M melanoma	> 100 µM
O=C(Nc1ccc(Cl)c(C(F)(F)F)c1)C(=O)C(C(=O)/C=C/c1ccccc1)C1OC(=O)c2ccccc21 (stereo unspecified)	MALME-3M melanoma	> 100 µM

// switching to the query compound
Query :: What measured TGI is associated with CN1C2CCC1CC(OC(c1ccccc1)c1ccccc1)C2 (stereo unspecified) on MALME-3M melanoma?
Result :: 28.1 µM
